target: Grb2 SH3C domain (Homo sapiens); experiment: Surface plasmon resonance; type: binding; conditions: 50 and 100 µM compound; cut-off 5 RU at 100 µM (KD ≤ 1 mM)
Sequence (P62993 156-215 limits assumed): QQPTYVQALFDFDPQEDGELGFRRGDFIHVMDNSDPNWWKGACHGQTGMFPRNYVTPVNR
property: SPR classification (binder / non-binder)

{"columns": ["molecule", "property", "result"],
 "data": [
  ["CC1(C)N=C(N)N=C(N)N1c1cccc(/C=C/C=C/c2cccc([N+](=O)[O-])c2)c1.Cl", "SPR classification (binder / non-binder)", "binders"],
  ["Br.CC1(C)N=C(N)N=C(N)N1c1cccc(CO)c1", "SPR classification (binder / non-binder)", "no activity"],
  ["Cl.Cl.NC1CCC(NC2CCC(N)CC2)CC1 (centres unmarked)", "SPR classification (binder / non-binder)", "binders"],
  ["CC(=O)c1ccc(/N=N/c2c(N)nc(N)nc2N)cc1", "SPR classification (binder / non-binder)", "binders"],
  ["CC1(C)N=C(N)N=C(N)N1c1cccc(OCc2cccc(N)c2)c1.Cl", "SPR classification (binder / non-binder)", "binders"],
  ["CC1(C)N=C(N)N=C(N)N1c1cccc(OCCOc2cccc(N)c2)c1.Cl", "SPR classification (binder / non-binder)", "binders"],
  ["Cc1ccc(O)c(C2CC(=O)NC(N)=N2)c1 (centres unmarked)", "SPR classification (binder / non-binder)", "binders"],
  ["CC1(C)N=C(N)N=C(N)N1c1cccc(OCC#N)c1.Cl", "SPR classification (binder / non-binder)", "binders"],
  ["Cc1ccc(C(/C=C/c2ccccc2)=N/NC(=N)N)cc1.Cl", "SPR classification (binder / non-binder)", "binders"],
  ["CC1(C)N=C(N)N=C(N)N1c1cccc(CCCCc2cccc(N)c2)c1.Cl", "SPR classification (binder / non-binder)", "binders"]
]}

# context switch: different molecule, same SPR classification (binder / non-binder)
The recorded SPR classification (binder / non-binder) for CC1(C)N=C(N)N=C(N)N1c1cc(C(F)(F)F)cc(C(F)(F)F)c1.Cl is no activity

---

target: Grb2 SH3C – Gab2b peptide interaction (Homo sapiens); assay: Biochemical competition assay; assay type: binding; conditions: compound 5 mM
Sequence (P62993 156-215 limits assumed): as above
property: competition assay result in words

{"columns": ["smiles.string", "result"],
 "data": [
  ["CC1(C)N=C(N)N=C(N)N1c1cc(C(F)(F)F)cc(C(F)(F)F)c1.Cl", "no activity"],
  ["Br.CC1(C)N=C(N)N=C(N)N1c1cccc(CO)c1", "no activity"],
  ["CC1(C)N=C(N)N=C(N)N1c1cccc(OCCOc2cccc(N)c2)c1.Cl", "no activity"]
]}
